Biological target: Fpg (formamidopyrimidine-DNA glycosylase) (Escherichia coli)
Sequence: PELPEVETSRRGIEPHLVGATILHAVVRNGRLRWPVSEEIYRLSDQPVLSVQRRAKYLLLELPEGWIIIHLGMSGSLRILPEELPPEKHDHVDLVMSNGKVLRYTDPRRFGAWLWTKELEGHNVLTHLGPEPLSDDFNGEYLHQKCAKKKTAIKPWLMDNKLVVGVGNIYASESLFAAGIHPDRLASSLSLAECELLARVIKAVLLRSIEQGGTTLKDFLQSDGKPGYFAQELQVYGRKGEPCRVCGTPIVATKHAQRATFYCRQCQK
Assay: MST
Conditions: N6 of strand 1 = tetrahydrofuran (F, abasic site analog), opposite G; MST: 50 mM Tris-HCl pH 7.5, 50 mM KCl, 1 mM EDTA, 1 mM DTT, 7% glycerol, 25 C, 10 min, 0.5 uM DNA; authors call Kd values estimates only
endpoint: pKd
Scale for pKd: -log10 of concentration given in mol/L; no unit attached.

Per the record, GCTCANGTACAGAGCTG / CAGCTCTGTACGTGAGC [F/G] has pKd of 5.72
